Measured Emax, listed per entry.
SYSTEM NAME: B2-AR (Homo sapiens)
Construct: expressed in transfected cells; host or cells: CHO-K1
Sequence (P07550 whole entry, species assumed): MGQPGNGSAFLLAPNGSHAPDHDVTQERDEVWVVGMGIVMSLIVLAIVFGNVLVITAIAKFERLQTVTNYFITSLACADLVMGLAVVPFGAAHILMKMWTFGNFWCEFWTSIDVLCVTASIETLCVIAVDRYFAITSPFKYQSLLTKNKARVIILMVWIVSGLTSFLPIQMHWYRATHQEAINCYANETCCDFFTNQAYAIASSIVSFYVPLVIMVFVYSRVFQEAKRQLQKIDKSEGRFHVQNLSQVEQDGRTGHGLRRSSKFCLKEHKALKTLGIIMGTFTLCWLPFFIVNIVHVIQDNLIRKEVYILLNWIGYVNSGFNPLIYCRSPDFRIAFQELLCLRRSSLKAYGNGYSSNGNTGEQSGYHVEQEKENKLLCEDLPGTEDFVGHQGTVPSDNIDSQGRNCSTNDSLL
ASSAY PROCEDURE: cAMP Gs dynamic HTRF assay, cells expressing beta-adrenergic receptor (CHO-K1), B2-AR
Type: cell-based
CONDITION SUMMARY: CHO-K1 cells, relative to full agonist isoproterenol; read-out: Emax (% iso) (%) [B2-AR]

> print(dat)
                                 compound  readout.kind  observed.value
1    CC[C@H](C)NC[C@H](O)c1cccc2[nH]ncc12          Emax           > 90%
2  Cc1nc(N)c(Cl)cc1[C@H](CO)NC1CC(F)(F)C1          Emax           < 50%
3     O[C@@H](CNC1CC1)c1cccc2[nH]nc(F)c12          Emax           > 90%

[Q] Find the recorded Emax belonging to CC(C)[C@H](C)NC[C@H](O)c1cccc2[nH]ncc12 and report it.
[A] > 90%

[Q] Find the recorded Emax belonging to N#Cc1cc([C@@H](O)CNC2CC2)c2cn[nH]c2c1 and report it.
[A] > 90%

[Q] Find the recorded Emax belonging to CC(C)(C)NC[C@H](O)c1cccc2[nH]nc(C(N)=O)c12 and report it.
[A] 50 to 70%

[Q] Find the recorded Emax belonging to CC(C)(C)CNC[C@H](O)c1cccc2[nH]ncc12 and report it.
[A] > 90%

[Q] Find the recorded Emax belonging to Cc1nc(N)c(F)cc1[C@H](CO)NC(C)(C)C and report it.
[A] < 50%

[Q] Find the recorded Emax belonging to Cn1nc(F)c2c([C@@H](O)CNC(C)(C)C)cccc21 and report it.
[A] 50 to 70%

[Q] Find the recorded Emax belonging to CC1C(=O)Nc2cccc([C@@H](O)CNC(C)(C)C)c21 (some centres unmarked) and report it.
[A] < 50%

[Q] Find the recorded Emax belonging to CC(C)NC[C@H](O)c1cccc2[nH]nc(F)c12 and report it.
[A] > 90%
